assay_explanation: MTT cell viability assay
Assay type: cell-based, human
condition_info: human; 2% isoflurane for 6 h; percent of control; MTT; read-out: cell viability, isoflurane alone

# compound, viability at 6 h, 2 % (%)
records = [
    ("FC(F)OC(Cl)C(F)(F)F (stereo not shown)", 74),
]

* * *

assay_explanation: MTT cell viability assay
Type: cell-based, human
condition_info: human; 2% isoflurane for 6 h vs control conditions; MTT; read-out: reduction in cell viability

# compound, cytotoxicity at 6 h, 2 % [%]
measured = [
    ("FC(F)OC(Cl)C(F)(F)F (stereo not shown) [isoflurane]", 26),
]
